tested on: HOP-18; assay: NCI tumour cell line growth inhibition, 48 h
Active and inactive are the calls of the source. Rule as the data show it: active = GI50 up to about 1.1 µM and inactive = higher.
Classes used: active, inactive

- N#Cc1ccc([N+](=O)[O-])cc1NC(N)=S: inactive
- COP(=O)(CC(=O)C1OC(C)(C)OC1C(O)COCc1ccccc1)OC (stereo unspecified): inactive
- Cc1cc(N(CCC#N)CCC#N)ccc1/C=C1N=C(/C=C\c2ccccc2)N(c2ccc(C(=O)O)cc2)C\1=O: inactive
- S=P1(Oc2ccccc2)NNP2(=NP(N3CC3)(N3CC3)=NP(N3CC3)(N3CC3)=N2)NN1 (stereo unspecified): inactive
- O=C(CC1(O)C(=O)Nc2c(Cl)cc(Cl)cc21)c1ccc(Br)cc1Br (stereo unspecified): inactive
- O/N=C/c1ncccc1C1OCCO1: inactive
- CCOC(=O)c1cc(Cl)ccc1OC(N)=O: inactive
- Cc1ccc(N2C(=O)N(c3ccc(C)cc3)C3(SC=NN3C)C2=O)cc1 (stereo unspecified): inactive
- [C-]#[N+]C(C)(C)C[C@H]1CC(C)C2CCC(C)C3([N+]#[C-])CCC(=C)C1[C@H]23 (stereo partly specified): active
- COc1cc(OC)c(OC)cc1/C=N/NC(=O)N/N=C/c1cc(OC)c(OC)cc1OC: inactive
- CN1C=C(C(N)=O)Cc2ccsc21: inactive
